ASSAY SYSTEM: HCV NS3 protease (Hepatitis C virus genotype 1b, UniProt P26663)
Construct: an NS3/4A complex comprising the NS3 protease domain
Sequence (P26663 1027-1208, other chains not shown): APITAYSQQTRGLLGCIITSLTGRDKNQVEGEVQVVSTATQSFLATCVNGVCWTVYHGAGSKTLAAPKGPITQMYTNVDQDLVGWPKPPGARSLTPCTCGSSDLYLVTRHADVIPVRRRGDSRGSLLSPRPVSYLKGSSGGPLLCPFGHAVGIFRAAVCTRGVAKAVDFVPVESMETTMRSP
TEST DESCRIPTION: Inhibition of NS3 protease (HPLC cleavage assay, NS3/4A complex with Pep4AK, substrate peptide 4AB)
Type: biochemical
CONDITION SUMMARY: Table 4 indoline keto acids and related; read-out: IC50
Give IC50 for every item shown.
Give bare numbers, in µM.

Previously resolved entries follow.
CC(C)C[C@H](NC(=O)C1(C(C)C)Cc2ccccc2N1)C(=O)NC(CC(F)F)C(=O)C(=O)O (mixture of isomers) :: 92
CC(C)C[C@H](NC(=O)C1Cc2ccc(OCC(=O)O)cc2N1)C(=O)NC(CC(F)F)C(=O)C(=O)O (single isomer, unassigned) [Compound 10f] :: 10
CC(C)C[C@H](NC(=O)C1(CC2CC2)Cc2ccccc2N1)C(=O)NC(CC(F)F)C(=O)C(=O)O (single isomer, unassigned) :: 20

Your task in this section: give IC50 for each listed record.
1. CC(C)C[C@H](NC(=O)C1(C2CCCCC2)Cc2ccccc2N1)C(=O)NC(CC(F)F)C(=O)C(=O)O (mixture of isomers)
2. CC(C)C[C@H](NC(=O)C1Cc2ccc(OCC3CCOC3)cc2N1)C(=O)NC(CC(F)F)C(=O)C(=O)O (mixture of isomers) [Compound 10h]
3. CC(C)C[C@H](NC(=O)C1(CC(C)C)CCC(=O)N1)C(=O)NC(CC(F)F)C(=O)C(=O)O (mixture of isomers)

Out:
[69, 16, 43]

----------
ASSAY SYSTEM: HCV NS3 protease (Hepatitis C virus genotype 1b, UniProt P26663)
Construct: an NS3/4A complex comprising the NS3 protease domain
TEST DESCRIPTION: Inhibition of NS3 protease (HPLC cleavage assay, NS3/4A complex with Pep4AK, substrate peptide 4AB)
Type: biochemical
CONDITION SUMMARY: Table 3 capped dipeptide keto acids; read-out: IC50
Give IC50 for every item shown.

CC(C)C[C@H](NC(=O)Cc1ccccc1CC(=O)O)C(=O)NC(CC(F)F)C(=O)C(=O)O (single isomer, unassigned) :: 8 µM

Your task in this section: give IC50 for each listed record.
1. CC(C)C[C@H](NC(=O)[C@H](O)c1ccc(C(F)(F)F)cc1)C(=O)NC(CC(F)F)C(=O)C(=O)O (mixture of isomers)
2. CC(C)C[C@H](NC(=O)OCc1ccccc1)C(=O)NC(CC(F)F)C(=O)C(=O)O (single isomer, unassigned)

Out:
56 µM
74 µM

----------
Give IC50 for every item shown.
ASSAY SYSTEM: HCV NS3 protease (Hepatitis C virus genotype 1b, UniProt P26663)
Construct: an NS3/4A complex comprising the NS3 protease domain
TEST DESCRIPTION: Inhibition of NS3 protease (HPLC cleavage assay, NS3/4A complex with Pep4AK, substrate peptide 4AB)
Format: biochemical
CONDITION SUMMARY: Table 3 capped dipeptide keto acids; read-out: IC50
Numbers only, in µM.

Previously resolved entries follow.
CC(C)C[C@H](NC(=O)C1OC(=O)CC12CCCC2)C(=O)NC(CC(F)F)C(=O)C(=O)O (mixture of isomers) :: 60
COC(=O)CC1(CC(=O)N[C@@H](CC(C)C)C(=O)NC(CC(F)F)C(=O)C(=O)O)CCCC1 (mixture of isomers) :: 85

Your task in this section: give IC50 for each listed record.
1. CC(C)C[C@H](NC(=O)[C@H](O)c1cccs1)C(=O)NC(CC(F)F)C(=O)C(=O)O (single isomer, unassigned)
2. CC(C)C[C@H](NC(=O)[C@H](O)c1ccccc1Cl)C(=O)NC(CC(F)F)C(=O)C(=O)O (mixture of isomers)
3. CC(C)C[C@H](NC(=O)CC1(CC(=O)NS(=O)(=O)c2ccccc2)CCCC1)C(=O)NC(CC(F)F)C(=O)C(=O)O (mixture of isomers)

Out:
18
82
7

----------
ASSAY SYSTEM: HCV NS3 protease (Hepatitis C virus genotype 1b, UniProt P26663)
Construct: an NS3/4A complex comprising the NS3 protease domain
TEST DESCRIPTION: Inhibition of NS3 protease (HPLC cleavage assay, NS3/4A complex with Pep4AK, substrate peptide 4AB)
Type: biochemical
CONDITION SUMMARY: Table 3 capped dipeptide keto acids; read-out: IC50
PROPERTY LABEL: pIC50
Answers are plain numbers, as −log10 of the molar value.

Previously resolved entries follow.
CC(C)C[C@H](NC(=O)Cc1cccs1)C(=O)NC(CC(F)F)C(=O)C(=O)O (single isomer, unassigned) :: 4.38
CC(C)C[C@H](NC(=O)CC1(CC(=O)O)OCCO1)C(=O)NC(CC(F)F)C(=O)C(=O)O (single isomer, unassigned) :: 4.82
CCCC(CCC)C(=O)N[C@@H](CC(C)C)C(=O)NC(CC(F)F)C(=O)C(=O)O (mixture of isomers) :: 4.11

Your task in this section: give pIC50 for each listed record.
1. CC(C)C[C@H](NC(=O)CC(CC(=O)O)c1ccc(Cl)cc1)C(=O)NC(CC(F)F)C(=O)C(=O)O (mixture of isomers)
2. CC(C)C[C@H](NC(=O)COCC(=O)O)C(=O)NC(CC(F)F)C(=O)C(=O)O (mixture of isomers)

Out:
1. 4.46
2. 4.49

----------
ASSAY SYSTEM: HCV NS3 protease (Hepatitis C virus genotype 1b, UniProt P26663)
Construct: an NS3/4A complex comprising the NS3 protease domain
TEST DESCRIPTION: Inhibition of NS3 protease (HPLC cleavage assay, NS3/4A complex with Pep4AK, substrate peptide 4AB)
Assay type: biochemical
CONDITION SUMMARY: Table 4 indoline keto acids and related; read-out: IC50
PROPERTY LABEL: pIC50
Numbers only, as −log10 of the molar value.

Previously resolved entries follow.
COc1ccc2c(c1)NC(C(=O)N[C@@H](CC(C)C)C(=O)NC(CC(F)F)C(=O)C(=O)O)C2 (single isomer, unassigned) [Compound 10a] :: 4.60
CC(C)C[C@H](NC(=O)c1cc2ccccc2[nH]1)C(=O)NC(CC(F)F)C(=O)C(=O)O (single isomer, unassigned) :: 4.15

In: Returns the measured pIC50 for the input compound. Input: CC(C)C[C@H](NC(=O)C1(Cc2cccc(C(=O)O)c2)Cc2ccccc2N1)C(=O)NC(CC(F)F)C(=O)C(=O)O (single isomer, unassigned)
Out: 6.10

----------
Give pIC50 for every item shown.
ASSAY SYSTEM: HCV NS3 protease (Hepatitis C virus genotype 1b, UniProt P26663)
Construct: an NS3/4A complex comprising the NS3 protease domain
TEST DESCRIPTION: Inhibition of NS3 protease (HPLC cleavage assay, NS3/4A complex with Pep4AK, substrate peptide 4AB)
Assay type: biochemical
CONDITION SUMMARY: Table 3 capped dipeptide keto acids; read-out: IC50
One number for each entry, as −log10 of the molar value.

Previously resolved entries follow.
CC(C)C[C@H](NC(=O)CC1(CC(=O)O)CCCCC1)C(=O)NC(CC(F)F)C(=O)C(=O)O (mixture of isomers) [Compound 7q] :: 5.70
CC(C)C[C@H](NC(=O)Cc1ccc(CC(=O)O)cc1)C(=O)NC(CC(F)F)C(=O)C(=O)O (mixture of isomers) [Compound 8d] :: 5.15
COc1ccc([C@@H](O)C(=O)N[C@@H](CC(C)C)C(=O)NC(CC(F)F)C(=O)C(=O)O)cc1 (mixture of isomers) [Compound 8p] :: 4.60
CC(C)C[C@H](NC(=O)Cc1cccc(CC(=O)O)c1)C(=O)NC(CC(F)F)C(=O)C(=O)O (mixture of isomers) [Compound 8c] :: 5.15
CC(C)C[C@H](NC(=O)CN(CC(=O)O)C(=O)OCc1ccccc1)C(=O)NC(CC(F)F)C(=O)C(=O)O (single isomer, unassigned) [Compound 7i] :: 4.70

Your task in this section: give pIC50 for each listed record.
1. CC(C)C[C@H](NC(=O)[C@H](O)c1ccccc1)C(=O)NC(CC(F)F)C(=O)C(=O)O (mixture of isomers) [Compound 8n]
2. CC(C)C[C@H](NC(=O)Cc1ccccc1C(=O)O)C(=O)NC(CC(F)F)C(=O)C(=O)O (single isomer, unassigned) [Compound 8e]

Out:
[5.22, 4.89]

Data provenance is patent US6867284B1.
